target: DLG5_1, Q8TDM6; test: holdup assay; design: key: below the threshold = too weak to quantify, mostly under pKd 3.1 to 4; conditions: plain residues with an end cap or a label only (N-terminal biotin on a linker: ttds)
Sequence (Q8TDM6 617-713): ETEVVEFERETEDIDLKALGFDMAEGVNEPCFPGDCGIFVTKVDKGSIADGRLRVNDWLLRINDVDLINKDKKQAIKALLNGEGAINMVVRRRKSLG

# binder, pKd
measured = [
    ("SSLQSLETSV [ATP2B4, P23634]", "below the threshold"),
    ("SKPTRRETEV [HPV35-E6, P27228]", "below the threshold"),
    ("PVRVCEETSL [OTULIN, Q96BN8]", 3.52),
    ("SGSRPSATVV [HPV73-E6, Q82005]", "below the threshold"),
]
